measuredTarget: EZH2 (rPRC2) (Homo sapiens)
Sequence (Q15910 whole entry): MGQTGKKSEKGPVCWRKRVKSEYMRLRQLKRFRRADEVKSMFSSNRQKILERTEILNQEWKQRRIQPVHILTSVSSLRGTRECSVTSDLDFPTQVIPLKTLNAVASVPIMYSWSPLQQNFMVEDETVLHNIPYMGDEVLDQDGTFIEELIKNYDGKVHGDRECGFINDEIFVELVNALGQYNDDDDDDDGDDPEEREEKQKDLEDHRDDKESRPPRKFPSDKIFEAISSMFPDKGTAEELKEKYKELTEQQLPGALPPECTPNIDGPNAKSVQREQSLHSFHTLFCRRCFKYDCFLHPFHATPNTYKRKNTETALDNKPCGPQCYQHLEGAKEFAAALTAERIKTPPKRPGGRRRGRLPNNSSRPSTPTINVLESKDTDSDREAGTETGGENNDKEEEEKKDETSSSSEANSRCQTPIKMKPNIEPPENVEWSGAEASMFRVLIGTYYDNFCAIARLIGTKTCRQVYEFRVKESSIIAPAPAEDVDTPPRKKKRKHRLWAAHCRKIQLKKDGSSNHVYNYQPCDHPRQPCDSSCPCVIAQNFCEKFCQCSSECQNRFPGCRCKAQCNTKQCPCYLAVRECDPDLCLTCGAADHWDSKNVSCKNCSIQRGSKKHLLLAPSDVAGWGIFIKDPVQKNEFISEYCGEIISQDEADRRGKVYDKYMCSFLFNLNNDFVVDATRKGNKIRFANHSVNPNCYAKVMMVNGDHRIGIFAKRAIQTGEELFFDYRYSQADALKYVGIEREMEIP
Sequence (O75530 whole entry partner): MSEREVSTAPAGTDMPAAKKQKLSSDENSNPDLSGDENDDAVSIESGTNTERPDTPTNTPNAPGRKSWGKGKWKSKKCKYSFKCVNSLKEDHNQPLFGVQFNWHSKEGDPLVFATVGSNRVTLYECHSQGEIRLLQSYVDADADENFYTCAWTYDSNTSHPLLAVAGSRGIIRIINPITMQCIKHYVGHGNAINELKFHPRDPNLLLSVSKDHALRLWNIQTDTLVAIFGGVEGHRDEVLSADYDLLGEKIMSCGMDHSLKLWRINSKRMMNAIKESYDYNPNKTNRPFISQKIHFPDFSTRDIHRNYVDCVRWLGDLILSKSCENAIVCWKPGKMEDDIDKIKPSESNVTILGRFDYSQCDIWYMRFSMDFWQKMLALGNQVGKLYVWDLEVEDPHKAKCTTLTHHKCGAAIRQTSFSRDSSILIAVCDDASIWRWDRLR
Sequence (Q15022 whole entry partner): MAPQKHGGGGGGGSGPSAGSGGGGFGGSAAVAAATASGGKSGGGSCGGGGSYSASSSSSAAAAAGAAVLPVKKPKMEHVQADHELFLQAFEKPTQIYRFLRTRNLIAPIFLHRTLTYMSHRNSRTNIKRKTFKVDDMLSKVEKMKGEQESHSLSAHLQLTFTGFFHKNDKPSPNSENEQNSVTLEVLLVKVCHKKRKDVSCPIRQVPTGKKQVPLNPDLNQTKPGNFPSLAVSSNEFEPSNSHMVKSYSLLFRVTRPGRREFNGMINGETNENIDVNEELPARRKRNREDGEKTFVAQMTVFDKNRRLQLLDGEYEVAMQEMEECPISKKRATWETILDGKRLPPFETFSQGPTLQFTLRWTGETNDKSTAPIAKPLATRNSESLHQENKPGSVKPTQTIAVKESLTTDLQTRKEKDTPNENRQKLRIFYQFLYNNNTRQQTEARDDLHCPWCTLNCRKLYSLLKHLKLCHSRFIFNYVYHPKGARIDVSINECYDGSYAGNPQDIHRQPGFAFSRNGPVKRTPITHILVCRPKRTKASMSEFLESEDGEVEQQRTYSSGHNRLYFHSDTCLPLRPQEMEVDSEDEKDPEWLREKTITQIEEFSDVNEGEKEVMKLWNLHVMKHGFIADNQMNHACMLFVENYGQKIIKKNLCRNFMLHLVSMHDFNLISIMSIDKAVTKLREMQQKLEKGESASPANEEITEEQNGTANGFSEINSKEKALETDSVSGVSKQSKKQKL
assayInfo: EZH2 assay: rPRC2, biotinylated oligonucleosomes, 3H SAM methyl transfer (FlashPlate scintillation)
Assay type: biochemical
measurementContext: EZH2 IC50, wild-type EZH2 (rPRC2), biotinylated oligonucleosome substrate
pIC50: −log10 of the molar value.
The entries below are paired with their reported pIC50.

Recorded results for 8 compounds are shown here.
[[record]]
compound = "COc1cc(C)[nH]c(=O)c1CNC(=O)c1c(C)n(C(C)C2CCN(C(=O)OC(C)(C)C)CC2)c2ccccc12 (single isomer, unassigned)"
observedmeasurement = "> 7.00"

[[record]]
compound = "Cc1cc(C)c(CNC(=O)c2c(C)n(C(C)c3cccc(S(C)(=O)=O)c3)c3ccccc23)c(=O)[nH]1 (racemic)"
observedmeasurement = "> 7.00"

[[record]]
compound = "COc1ccccc1C(C)n1c(C)c(C(=O)NCc2c(C)cc(C)[nH]c2=O)c2ccccc21 (racemic)"
observedmeasurement = "6.00 to 7.00"

[[record]]
compound = "CCc1cc(OC)c(CNC(=O)c2c(C)n(C(C)COC)c3ncccc23)c(=O)[nH]1 (racemic)"
observedmeasurement = "6.00 to 7.00"

[[record]]
compound = "COc1cc(C)[nH]c(=O)c1CNC(=O)c1c(C)n(C(C)C(C)OC)c2ncccc12 (single isomer, unassigned) [Compound 302]"
observedmeasurement = "6.00 to 7.00"

[[record]]
compound = "Cc1cc(C)c(CNC(=O)c2c(C)n(C3CCOCC3)c3ncccc23)c(=O)[nH]1"
observedmeasurement = "6.00 to 7.00"

[[record]]
compound = "Cc1cc(C)c(CNC(=O)c2c(C)n(C(C)C3CCN(CC(C)(C)O)CC3)c3ccccc23)c(=O)[nH]1 (single isomer, unassigned)"
observedmeasurement = "> 7.00"

[[record]]
compound = "COc1cc(C)[nH]c(=O)c1CNC(=O)c1c(C)n([C@H](C)[C@H](OC)C2CC2)c2ncccc12 (single isomer, unassigned) [Compound 286]"
observedmeasurement = "> 7.00"


q: Fill blank: measured pIC50 of the compound COc1cc(C)[nH]c(=O)c1CNC(=O)c1c(C)n(C(C)C#N)c2ncccc12 (racemic) is ____.
a: 6.00 to 7.00

q: Here is the next compound: COCC(C)(C)n1c(C)c(C(=O)NCc2c(OC)cc(C)[nH]c2=O)c2ccccc21
a: > 7.00

q: Here is the next compound: COc1cc(C)[nH]c(=O)c1CNC(=O)c1c(C)n(C(C)C2CCOCC2)c2ncccc12 (single isomer, unassigned)
a: > 7.00

q: Here is the next compound: COc1cc(C)[nH]c(=O)c1CNC(=O)c1c(C)n(C(C)C2CCC(F)(F)CC2)c2ncncc12 (racemic)
a: > 7.00

q: Here is the next compound: CC[C@@H](C)n1c(C)c(C(=O)NCc2c(C)cc(C)nc2O)c2cncnc21
a: 6.00 to 7.00

q: Here is the next compound: CCOc1cc(C)[nH]c(=O)c1CNC(=O)c1c(C)n(C(C)COC)c2ncccc12 (racemic)
a: 6.00 to 7.00

###

measuredTarget: Y641N EZH2 (Homo sapiens, UniProt Q15910, Y641N)
Sequence (Q15910 whole entry Y641N): as the sequence (Q15910 whole entry) above, with Y641N counted along it
Sequence (O75530 whole entry partner): as the sequence (O75530 whole entry partner) above
Sequence (Q15022 whole entry partner): as the sequence (Q15022 whole entry partner) above
assayInfo: Y641N EZH2 assay: as EZH2 assay, with reconstituted H3K27Me2 oligonucleosomes as substrate
Format: biochemical
measurementContext: Y641N mutant EZH2, H3K27Me2 oligonucleosome substrate; read-out: Y641N EZH2 IC50
measuredEndpoint: IC50

Recorded results for 3 compounds are shown here.
[[record]]
compound = "Cc1cc(C)c(CNC(=O)c2c(C)n(C(C)CS(C)(=O)=O)c3ncccc23)c(=O)[nH]1 (racemic)"
measuredtarget = "Y641N EZH2 (Homo sapiens, UniProt Q15910, Y641N)"
observedmeasurement = "100 to 1000 nM"

[[record]]
compound = "CC[C@@H](C)n1c(C)c(C(=O)NCc2c(C)cc(C)nc2O)c2cnc(-c3ccccc3)nc21"
measuredtarget = "Y641N EZH2 (Homo sapiens, UniProt Q15910, Y641N)"
observedmeasurement = "1000 to 10000 nM"

[[record]]
compound = "COCC(C)n1c(C)c(C(=O)NCc2c(OC)cc(C)[nH]c2=O)c2ccc(N3CCNCC3)nc21 (racemic)"
measuredtarget = "Y641N EZH2 (Homo sapiens, UniProt Q15910, Y641N)"
observedmeasurement = "1000 to 10000 nM"


Let's switch to this compound now.
q: Fill blank: measured IC50 of the compound COc1cc(C)[nH]c(=O)c1CNC(=O)c1c(C)n(C(C)c2cccc(C(N)=O)c2)c2ncccc12 (racemic) is ____.
a: 100 to 1000 nM

###

measuredTarget: Y641N EZH2 (Homo sapiens, UniProt Q15910, Y641N)
assayInfo: Y641N EZH2 assay: as EZH2 assay, with reconstituted H3K27Me2 oligonucleosomes as substrate
Assay type: biochemical
measurementContext: read-out: Y641N EZH2 IC50; Y641N mutant EZH2, H3K27Me2 oligonucleosome substrate
pIC50: −log10 of the molar value.
measuredEndpoint: pIC50

[[record]]
molecule = "Cc1cc(C)c(CNC(=O)c2c(C)n(C(C)c3ccccc3)c3ncccc23)c(=O)[nH]1 (single isomer, unassigned)"
observedmeasurement = "6.00 to 7.00"


Let's switch to this molecule now.
q: Fill blank: measured pIC50 of the molecule Cc1cc(C)c(CNC(=O)c2c(C)n(C(C)C3CC3)c3ncccc23)c(=O)[nH]1 (single isomer, unassigned) is ____.
a: 6.00 to 7.00

###

The entries below are paired with their reported IC50.
measuredTarget: Y641N EZH2 (Homo sapiens, UniProt Q15910, Y641N)
assayInfo: Y641N EZH2 assay: as EZH2 assay, with reconstituted H3K27Me2 oligonucleosomes as substrate
Format: biochemical
measurementContext: Y641N EZH2 IC50, Y641N mutant EZH2, H3K27Me2 oligonucleosome substrate

Recorded results for 6 molecules are shown here.
[[record]]
molecule = "Cc1cc(C)c(CNC(=O)c2c(C)n(C(C)c3ccc(F)cc3)c3ccccc23)c(=O)[nH]1 (racemic) [Compound 166]"
observedmeasurement = "100 to 1000 nM"

[[record]]
molecule = "COc1cc(C)[nH]c(=O)c1CNC(=O)c1c(C)n(C2CCCC2)c2ccccc12 [Compound 324]"
observedmeasurement = "100 to 1000 nM"

[[record]]
molecule = "Cc1cc(C)c(CNC(=O)c2c(C)n([C@H](C)c3ccccc3)c3nc(C)ncc23)c(O)n1 [Compound 176]"
observedmeasurement = "100 to 1000 nM"

[[record]]
molecule = "Cc1cc(C)c(COC(=O)c2c(C)n(C3CCOC3)c3ncccc23)c(=O)[nH]1 (racemic) [Compound 202]"
observedmeasurement = "1000 to 10000 nM"

[[record]]
molecule = "COc1nccc(C(C)n2c(C)c(C(=O)NCc3c(C)cc(C)[nH]c3=O)c3cccnc32)n1 (racemic) [Compound 233]"
observedmeasurement = "1000 to 10000 nM"

[[record]]
molecule = "Cc1cc(C)c(CNC(=O)c2c(C)n(C(C)c3ccccc3)c3cnccc23)c(=O)[nH]1 (single isomer, unassigned) [Compound 248]"
observedmeasurement = "100 to 1000 nM"


q: Fill blank: measured IC50 of the molecule COc1cc(C)[nH]c(=O)c1CNC(=O)c1c(C)n(C(C)c2ccccc2)c2cnccc12 (racemic) [Compound 243] is ____.
a: 100 to 1000 nM

###

measuredTarget: Y641N EZH2 (Homo sapiens, UniProt Q15910, Y641N)
assayInfo: Y641N EZH2 assay: as EZH2 assay, with reconstituted H3K27Me2 oligonucleosomes as substrate
Assay type: biochemical
measurementContext: Y641N EZH2 IC50, Y641N mutant EZH2, H3K27Me2 oligonucleosome substrate
measuredEndpoint: IC50

Recorded results for 6 compounds are shown here.
[[record]]
compound = "COc1cc(C)[nH]c(=O)c1CNC(=O)c1c(C)n(C(C)C(C)(C)OC)c2ccccc12 (racemic)"
measuredtarget = "Y641N EZH2 (Homo sapiens, UniProt Q15910, Y641N)"
observedmeasurement = "< 100 nM"

[[record]]
compound = "Cc1cc(C)c(CNC(=O)c2c(C)n(C(C)c3ccc(S(C)(=O)=O)cc3)c3ccccc23)c(=O)[nH]1 (racemic)"
measuredtarget = "Y641N EZH2 (Homo sapiens, UniProt Q15910, Y641N)"
observedmeasurement = "100 to 1000 nM"

[[record]]
compound = "COC(C)C(C)n1c(C)c(C(=O)NCc2c(C)cc(C)[nH]c2=O)c2ccc(S(C)(=O)=O)cc21 (stereo not shown)"
measuredtarget = "Y641N EZH2 (Homo sapiens, UniProt Q15910, Y641N)"
observedmeasurement = "100 to 1000 nM"

[[record]]
compound = "COc1cc(C)[nH]c(=O)c1CNC(=O)c1c(C)n(C(C)C2CCN(C(C)C)CC2)c2ccccc12 (single isomer, unassigned)"
measuredtarget = "Y641N EZH2 (Homo sapiens, UniProt Q15910, Y641N)"
observedmeasurement = "< 100 nM"

[[record]]
compound = "COc1cc(C)[nH]c(=O)c1CNC(=O)c1c(C)n(C(C)C2CCN(c3ncccn3)CC2)c2ccccc12 (single isomer, unassigned)"
measuredtarget = "Y641N EZH2 (Homo sapiens, UniProt Q15910, Y641N)"
observedmeasurement = "< 100 nM"

[[record]]
compound = "Cc1cc(C)c(CNC(=O)c2c(C)n([C@H](C)c3ccccc3)c3nc(C(C)C)ncc23)c(O)n1"
measuredtarget = "Y641N EZH2 (Homo sapiens, UniProt Q15910, Y641N)"
observedmeasurement = "100 to 1000 nM"


q: Fill blank: measured IC50 of the compound CC[C@@H](C)n1c(C)c(C(=O)NCc2c(C)cc(C)nc2O)c2cncnc21 is ____.
a: 1000 to 10000 nM
